Origin of the recorded values: patent US10865191B2

# IC50 per record follows
- target system: TNFα (Homo sapiens)
- assay summary: TNF induced HEK-Blue assay (NF-kB-driven secreted alkaline phosphatase reporter)
- Format: cell-based
- test context: TNFα 0.5 ng/mL, HEK-Blue-CD40L cells, 18 h; read-out: TNF induced HEK-Blue assay IC50 value

INSERT INTO results (compound, target_system, reported_metric, val) VALUES
  ('CC(Nc1c(Cl)cnc2ccc(-c3cnc(C(C)(C)O)nc3)cc12)[C@@H]1CCCNC1 (mixture of isomers)', 'TNFα (Homo sapiens)', 'IC50', '10 to 25 µM'),
  ('Cc1nc2ccc(-c3cnc(C(C)(C)O)nc3)cc2c(N[C@H](C)c2cc(Br)ccc2F)c1Cl', 'TNFα (Homo sapiens)', 'IC50', '< 1 µM'),
  ('C[C@@H](Nc1c(Cl)cnc2cc(F)c(-c3cnc(N4CCC(C(C)(C)O)C4)nc3)cc12)c1ccccc1F (mixture of isomers)', 'TNFα (Homo sapiens)', 'IC50', '< 1 µM'),
  ('Cc1nc2ccc(-c3cnc(C(C)(C)O)nc3)cc2c(N[C@H](C)c2cc(N3CCNC3=O)ccc2F)c1Cl', 'TNFα (Homo sapiens)', 'IC50', '< 1 µM'),
  ('CC(Nc1c(Cl)cnc2ccc(-c3cnc(N4CCNC(=O)C4)nc3)cc12)c1nc(C(N)=O)ccc1F (single isomer, unassigned) [Example 26]', 'TNFα (Homo sapiens)', 'IC50', '< 1 µM');

Query (compound): CC(C)CC(C)Nc1c(Cl)cnc2ccc(-c3cnc(C(C)(C)O)nc3)cc12 (racemic) ; field requested: IC50
< 1 µM

Try this compound too: C[C@@H](Nc1c(Cl)cnc2cc(F)c(-c3cnc(C(C)(C)O)nc3)cc12)c1cc(C#N)ccc1F
< 1 µM

Try this compound too: C[C@@H](Nc1c(Cl)cnc2ccc(-c3cnc(C(C)(C)O)nc3)cc12)c1cc(-c2cnn(CC(C)(C)O)c2)ccc1F
< 1 µM

Try this compound too: C[C@@H](Nc1c(Cl)cnc2ccccc12)c1cc(-c2cnc(N)nc2)ccc1F
< 1 µM

Try this compound too: CC(Nc1c(Cl)cnc2cc(F)c(-c3ccc(C(C)(C)O)c(F)c3)cc12)c1ccccc1F (centres unmarked)
1 to 10 µM

Try this compound too: C[C@@H](Nc1c(Cl)cnc2ccccc12)c1cc(-c2ccc(C#N)nc2)ccc1F
< 1 µM

Try this compound too: CC(Nc1c(Cl)cnc2cc(F)c(-c3cnc(C(C)(C)O)cn3)cc12)c1ccccc1F (racemic) [Example 294]
< 1 µM

Try this compound too: C[C@@H](Nc1c(Cl)cnc2ccc(-c3cnc(C4CCN(CC(=O)O)CC4)nc3)cc12)c1ccccc1F
1 to 10 µM

Try this compound too: CC(Nc1c(Cl)cnc2ccc(-c3ccc(C(C)(C)O)cc3)cc12)c1cncs1 (racemic)
< 1 µM

Try this compound too: C[C@@H](Nc1c(Cl)cnc2ccc(-c3cnc(C(C)(C)O)nc3)cc12)c1cc(O)ccc1F
< 1 µM

Try this compound too: C[C@@H](Nc1c(Cl)cnc2ccccc12)c1ccccc1C(F)(F)F
10 to 25 µM

Try this compound too: CC(C)(O)c1ncc(-c2ccc3ncc(Cl)c(NN4CCc5ccccc54)c3c2)cn1
< 1 µM

Try this compound too: C[C@@H](Nc1c(Cl)cnc2ccc(-c3cnc(C(C)(C)O)nc3)cc12)c1cc(N2CCOC2=O)ccc1F
< 1 µM

Try this compound too: CN(Nc1c(Cl)cnc2ccc(-c3cnc(C(C)(C)O)nc3)cc12)c1ccccc1
< 1 µM

====

# pIC50 per record follows
- target system: TNFα (Homo sapiens)
- assay summary: TNF induced HEK-Blue assay (NF-kB-driven secreted alkaline phosphatase reporter)
- Assay type: cell-based
- test context: TNFα 0.5 ng/mL, HEK-Blue-CD40L cells, 18 h; read-out: TNF induced HEK-Blue assay IC50 value
pIC50: −log10 of the molar value.

A selection of reference data follows.
INSERT INTO assay_data (molecule, target_system, val) VALUES
  ('Cc1nc2ccc(-c3cnc(C(C)(C)O)nc3)cc2c(-c2ccccc2-c2ccccc2)c1Cl', 'TNFα (Homo sapiens)', '5.00 to 6.00'),
  ('CC(Nc1c(Cl)cnc2cc(F)c(-c3cnc(C(O)CN4CCOCC4)cn3)cc12)c1ccccc1F (centres unmarked) [Example 276]', 'TNFα (Homo sapiens)', '5.00 to 6.00'),
  ('CC(Nc1c(Cl)cnc2cc(F)c(-c3cnc(C#N)nc3)cc12)c1ccccc1F (centres unmarked)', 'TNFα (Homo sapiens)', '5.00 to 6.00');

Query (molecule): Cc1cc(-c2ccc(F)c([C@@H](C)Nc3c(Cl)cnc4ccccc34)c2)cnn1 ; field requested: pIC50
5.00 to 6.00

Try this molecule too: Cc1nc2ccc(-c3cnc(C(C)(C)O)nc3)cc2c(N[C@H](C)c2cc(C#N)ccc2F)c1C
> 6.00

Try this molecule too: CC(Nc1c(Cl)cnc2cc(F)c(-c3ccc(C4(CO)CC4)cc3)cc12)c1ccccc1F (centres unmarked) [Example 265]
> 6.00

Try this molecule too: C[C@@H](Nc1c(Cl)cnc2ccccc12)c1cc(-c2cccc(N)c2)ccc1F
5.00 to 6.00

Try this molecule too: CC(Nc1c(Cl)cnc2ccc(-c3ccc(C(C)(C)O)cc3)cc12)c1nccn1C (racemic)
4.60 to 5.00

====

- target system: TNFα (Homo sapiens, UniProt P01375)
- Sequence (P01375 77-233 limits assumed): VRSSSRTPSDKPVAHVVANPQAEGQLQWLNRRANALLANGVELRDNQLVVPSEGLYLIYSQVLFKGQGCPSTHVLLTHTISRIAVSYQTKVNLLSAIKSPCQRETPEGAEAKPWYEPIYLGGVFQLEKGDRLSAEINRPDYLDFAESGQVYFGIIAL
- assay summary: TNF induced HEK-Blue assay (NF-kB-driven secreted alkaline phosphatase reporter)
- Assay type: cell-based
- test context: TNFα 0.5 ng/mL, HEK-Blue-CD40L cells, 18 h; read-out: TNF induced HEK-Blue assay IC50 value
reported metric: IC50

A selection of reference data follows.
INSERT INTO assay_data (compound, reported_metric, val) VALUES
  ('Cc1nc2c(F)cc(-c3cnc(C(C)(C)O)nc3)cc2c(NC(C)c2ccccc2F)c1Cl (racemic) [Example 298]', 'IC50', '< 1000 nM'),
  ('C[C@@H](Nc1c(Cl)cnc2ccc(-c3ccc(N4CCN[C@H](CO)C4)nc3)cc12)c1ccccc1F [Example 84]', 'IC50', '< 1000 nM'),
  ('C=Cc1ccc(F)c([C@H](Nc2c(Cl)c(C)nc3ccc(-c4cnc(C(C)(C)O)nc4)cc23)C(F)F)c1 [Example 352]', 'IC50', '< 1000 nM');

Lab note: next compound to report on.
Query (compound): Cc1nc2ccc(-c3cnc(C(C)(C)O)nc3)cc2c(N[C@H](C)c2cc(-c3ccccc3)ccc2F)c1Cl [Example 331] ; field requested: IC50
< 1000 nM

====

# pIC50 per record follows
- target system: TNFα (Homo sapiens, UniProt P01375)
- assay summary: TNF induced HEK-Blue assay (NF-kB-driven secreted alkaline phosphatase reporter)
- Assay type: cell-based
- test context: TNFα 0.5 ng/mL, HEK-Blue-CD40L cells, 18 h; read-out: TNF induced HEK-Blue assay IC50 value
pIC50: −log10 of the molar value.

A selection of reference data follows.
INSERT INTO measurements (compound, target_system, reported_metric, val) VALUES
  ('Cc1ncccc1-c1ccc(F)c([C@@H](C)Nc2c(Cl)cnc3ccccc23)c1 [Example 475]', 'TNFα (Homo sapiens, UniProt P01375)', 'pIC50', '5.00 to 6.00'),
  ('C[C@@H](Nc1c(Cl)cnc2ccccc12)c1cc(-c2cncn2C)ccc1F [Example 524]', 'TNFα (Homo sapiens, UniProt P01375)', 'pIC50', '> 6.00');

Query (compound): C[C@@H](Nc1c(Cl)cnc2ccc(-c3cnc(C(C)(C)O)nc3)cc12)c1cc(S(C)(=O)=O)ccc1F [Example 425] ; field requested: pIC50
> 6.00

Try this compound too: CC(Nc1c(Cl)cnc2cc(F)c(-c3cnc(N4CCN(CC(=O)O)CC4)nc3)cc12)c1ccccc1F (single isomer, unassigned) [Example 242]
> 6.00

====

- target system: TNFα (Homo sapiens)
- assay summary: TNF induced HEK-Blue assay (NF-kB-driven secreted alkaline phosphatase reporter)
- Type: cell-based
- test context: TNFα 0.5 ng/mL, HEK-Blue-CD40L cells, 18 h; read-out: TNF induced HEK-Blue assay IC50 value
pIC50: −log10 of the molar value.
reported metric: pIC50

INSERT INTO measurements (molecule, val) VALUES
  ('Cc1ccc(C)c(Nc2c(Cl)c(N)nc3ccc(-c4cnc(NCCO)nc4)cc23)c1 [Example 70]', '> 6.00');

Query (molecule): CC(C)(O)c1ncc(-c2ccc3ncc(Cl)c(NC4(c5ccccc5)CC4)c3c2)cn1 [Example 161] ; field requested: pIC50
5.00 to 6.00

Try this molecule too: CCc1ccc(-c2ccc(F)c([C@@H](C)Nc3c(Cl)cnc4ccccc34)c2)cn1 [Example 508]
> 6.00

Try this molecule too: Cc1ccc(C)c(Nc2c(Cl)c(N)nc3ccc(-c4cnc(NCC(C)(C)O)nc4)cc23)c1 [Example 69]
> 6.00

Try this molecule too: CC(Nc1c(Cl)cnc2ccc(-c3cnc(C(C)(C)O)nc3)cc12)c1ccncc1F (racemic) [Example 162]
> 6.00
